- studyTarget: OC43 FP peptide (OC43), P36334
- Sequence (P36334 900-919 limits assumed): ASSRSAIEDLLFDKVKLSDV
- protocolDetails: peptide ELISA
What EC50 was measured for each of the following?
Answers are plain numbers, in µg/mL.

Record excerpt, results attached:
* fp.009 (antibody, V domains shown) VH: VQLVESGGGVVQPGTSLTLSCEASGFTFSNYAMHWVRQAPGKGLEWVAIISFDTRNKKFAGSVQGRFSISRDNAKNSIYLQMNNLRPEDTGIYYCARDVFLSDYDSRGFDRTRGGFDYWGQGTLVTVSS VL: EIVMTQSPATLSVSPGEKATLSCRASESVGSSLAWYQQKLGQAPRLLIYGASTRATGIPARFSGSGSGAEFTLTISSLQSEDFAIYYCQQYGDWPLLTFGGGTKVEIK | 0.026
* fp.010 (antibody, V domains shown) VH: EVQLLESGGGLVQPGGSLRLSCAASGFTFSTYAMNWVRQAPGKGLEWVSAISSSGLSTQYADSVRGRFTISRDTSKNTLYLHMNSLRAGDTAVYYCAKVEYSGYDPRGPFDSWGQGTLVTVSS VL: DIQMTQSPSTLSASVGDRVTITCRASQSISGWLAWYQQKPGRAPKLLIYKASSLERGVPSRFSGSGSGTEFTLTISSLQPDDFATYYCQEYSSYPLCTFGQGTKLEIK | 0.0421
* fp.006 (antibody, V domains shown) VH: VQLVESGGGVVQPGGSLRLSCAASGFNFNNYALHWVRQAPGKGLEWVAIISYEARNKKYGVSVMGRFSISRDNSKSIMYLEMNSLRVEDTGVYYCARDLFLSDYDRSGYDPTRGGFDHWGQGTLVTVSS VL: EIVMTQSPATLSVSPGERATLSCRASQSVSSSLAWYQHRFGQAPRLLISGASTRATGIPGRFSGSGSGTEFTLTISSLQSEDVAVYYCQQYGDWPLVTFGGGTKVEIK | 0.0134
* fp.005 (antibody, V domains shown) VH: VQLVESGGGVVQPGNSLRLSCAASGFRFNNYAMHWVRQAPGKGLEWVAIISYEARNEKYADSVKGRFSISRDNAKNTLYLQMNSLRADDTGVYYCARDLFLSDYDTSGYDRTRGGFDYWGQGALVTVSS VL: EIVMTQSPATLSVSPGERATLSCRASQSVSNGLAWYQHRFGQPPRLLIYGASTRATGIPTRFSGSGSGTEFTLTISSLQSEDFAVYYCQQYDDWPLITFGGGTKVEIK | 0.0244

Next binder, EC50 to be filled in.
Returns the measured EC50 for the input binder. Input: fp.008 (antibody, V domains shown) VH: VQLVESGGGVVQPGRSLRLSCRASGFRFNNYAMHWVRQAPGKGLEWVAIISYEARNEKYAASVKGRFSISRDNAKNTLYLQMNSLRPEDTAIYYCARDVFLSDYDQSGYDVTRGGFDYWGQGTLVTVSS VL: EIVMTQSPATLSVSPGESATLSCRASQSVSSSLAWYQHKFGQAPRLLIYGASTRATGIPDRFSGSGSGMEFTLTISSLQSEDVAIYYCQQYGDWPLVTFGGGTKVEIK
0.0235
